src = the supplement of paper PMC10567573

Experiment: protein stability index of a GFP-peptide fusion (GPS, HEK-293T) (PSI 1-6); higher = more stable;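 note: 24-mer peptide tiles fused after GFP, lentivirally expressed, FACS-sorted into six equal bins by GFP/DsRed ratio, decoded by Illumina sequencing, PSI is the read-weighted mean bin number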
Conditions: treatment: DMSO; c terminus: a fixed tail appended
Each entry gets f if its protein stability index stays under 4, and t if its protein stability index is 4 or above.

Query string: Is protein stability index at least 4? Consider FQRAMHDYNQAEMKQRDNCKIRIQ [STX11]
Result string: f

----------
Assay: protein stability index of a GFP-peptide fusion (GPS, HEK-293T) (PSI 1-6); higher = more stable
Details: treatment: MLN4924 1 uM, 8 h; c terminus: a fixed tail appended
value_type: protein stability index
Write the value as a bare number.

Answered cases to consult:
>>> print(df.to_string())
                           biosequence  observed_result
0     IAKYSDGASKAAGVFGFFATIVFA [CMTM3]             2.74
1     DERRDAEERASLAGNRNSMVIHIP [KCNK9]             4.51
2      LLCLLHFSIVSVAAHLALLLLCGT [RTN2]             3.33
3     PGIDIREDLAQKLNLEEDRIQIWF [HESX1]             2.43
4     LPFVLAAAVSRKKKRRMGTYSLVP [EHMT1]             2.27
5     TASYPSDGCGADGLRSRVKYGVKT [NOL4L]             3.98
6    SPEARDARSPSGPSGSLENGTKAD [TRIM29]             5.61
7  NALTLFNLAQDPQCKEWQVLMCGF [TMEM120A]             2.06

Could you now consider this next sequence?
Query string: Tell me its protein stability index given QVAKREREAATKHSKASLPTGEGS [CHCHD6] as the entry.
Result string: 5.26

----------
Experiment: protein stability index of a GFP-peptide fusion (GPS, HEK-293T) (PSI 1-6); higher = more stable
Conditions: treatment: DMSO; c terminus: a fixed tail appended
Examples of sequences with documented protein stability index follow.
Answer using only a numeral; do not append any unit.

Some sequences with recorded protein stability index:
>>> df
                         biosequence  observed_result
0   IKNLYAFNLFCQKRFDESMQVFAK [VPS39]             2.19
1   QRRSRQNPQSPPQDSSVTSKRNIK [HDAC6]             5.26
2  QPVQSKPQKASAPAADPPRYTFAP [PDLIM7]             4.37
3   GSLGFEPVYVSCIAQDTCTTTDHS [SPAG8]             3.37
4   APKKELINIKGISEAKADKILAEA [RAD51]             4.05
5    QLVSFQKLKLTNNHLDPFGHIILN [TBX5]             2.33
6  DKLLKHMIIEHKIVIADVKLVADF [ZNF277]             3.07
7    RTPEILKKALSGLSSRWKNWWIRG [CDS1]             2.49

Query string: Supply reported protein stability index belonging to this sequence: VRWLRPVHRQLGEANEEFALRVQQ [AUP1]
Result string: 3.1

Query string: Dear colleague, please send me the reported protein stability index for HKTAGKRYVYRFVCDLQSLLGYTP [ETS1] when you can.
Result string: 3.08

Query string: Note protein stability index for the sequence shown: RRDCDALMAGCIQEARERWNFDFV [CDKN1A]
Result string: 2.06

Query string: Quickly give me recorded protein stability index for FFSKRFKSAAMLAVFAVSAVVHEY [SOAT1]
Result string: 2.35

Query string: Report measured protein stability index; entry is LEIPVETITSEVIEKCTTPLSDDH [CRY1]
Result string: 4.8

Query string: Recall and state the measured protein stability index for YIPVIKRALNSVPVIIAAVGTRQN [RHOBTB3] .
Result string: 2.35

Query string: // Input: SASSIKQILLEWCRSKTLGYQHVD [SMTNL2] . Output its protein stability index only.
Result string: 2.22

Query string: Give protein stability index for the following sequence: YIPRRLEEAAMQKCLVTEAQTLLR [RSAD1]
Result string: 2.34

Query string: Determine from records and report protein stability index for ETPMAPVPLGPLGETYCEEHGEKI [TRIM15]
Result string: 5.39

Query string: Return value of protein stability index for input SCIGNKQKAVKSCLVCQASFCELH [TRIM29] , no commentary.
Result string: 3.51
